For each of the molecules below, state its viability, T/C.
- Test system: NCI-H196 complex spheroids with HUVEC/MSC, growth % T/C
- Assay Procedure: Anticancer human tumor NCI-H196 cell line growth inhibition [Asc];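 note: spheroids exposed to compound for 7 days before measurement; 100% = DMSO vehicle control wells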
- Conditions: second compound 1 µM; first compound 3 µM; active compounds read low

Illustrative cases are given below, each with its answer.
CCN1C(C(=O)NC23CCC(C(=O)O)(CC2)CC3)C(c2cccc(Cl)c2F)C2(C(=O)Nc3cc(Cl)ccc32)C12CCCCC2 (stereo not drawn) + Cc1c(S(C)(=O)=O)c(-c2cc(F)cc(N3CCN(c4ccc(NS(=O)(=O)c5ccc(NC(CCN6CCC(C(=O)OCCCP(=O)(O)O)CC6)CSc6ccccc6)c(S(=O)(=O)C(F)(F)F)c5)cc4)CC3)c2)c(-c2ccc(Cl)cc2)n1C(C)C: 62.6%
Cc1nc(N2CCC3(CC2)COC(C)C3N)c(CO)nc1Sc1ccnc(N)c1Cl (stereo not drawn) + Cc1c(S(C)(=O)=O)c(-c2cc(F)cc(N3CCN(c4ccc(NS(=O)(=O)c5ccc(NC(CCN6CCC(C(=O)OCCCP(=O)(O)O)CC6)CSc6ccccc6)c(S(=O)(=O)C(F)(F)F)c5)cc4)CC3)c2)c(-c2ccc(Cl)cc2)n1C(C)C: 24%

input: Notebook entry, NCI-H196 complex spheroids with HUVEC/MSC, growth % T/C assay: viability, T/C of Cc1nc(N2CCC3(CC2)COC(C)C3N)c(CO)nc1Sc1ccnc(N)c1Cl (stereo not drawn) + CNC(C)C(=O)NC1CN(S(=O)(=O)c2cccc(S(=O)(=O)N3CCC4CCC(C(=O)NC(c5ccccc5)c5ccccc5)N4C(=O)C(NC(=O)C(C)NC)C3)c2)CCC2CCC(C(=O)NC(c3ccccc3)c3ccccc3)N2C1=O = ?
output: 1.83%

###

- System: NCI-H196 complex spheroids with HUVEC/MSC, growth % T/C
- Assay Procedure: Anticancer human tumor NCI-H196 cell line growth inhibition [Asc];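 note: spheroids exposed to compound for 7 days before measurement; 100% = DMSO vehicle control wells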
- Conditions: second compound 0.1 µM; first compound 0.01 µM; active compounds read low
Measure Name: viability, T/C (%)
Give bare numbers, in %.

Illustrative cases are given below, each with its answer.
Cn1ncnc1[C@H]1c2n[nH]c(=O)c3cc(F)cc(c23)N[C@@H]1c1ccc(F)cc1 + Cc1c(S(C)(=O)=O)c(-c2cc(F)cc(N3CCN(c4ccc(NS(=O)(=O)c5ccc(NC(CCN6CCC(C(=O)OCCCP(=O)(O)O)CC6)CSc6ccccc6)c(S(=O)(=O)C(F)(F)F)c5)cc4)CC3)c2)c(-c2ccc(Cl)cc2)n1C(C)C: 101
COc1c(OCCCN2CCOCC2)ccc2c3n(c(=NC(=O)c4cnc(N)nc4)nc12)CCN3 + CNC(C)C(=O)NC1CN(S(=O)(=O)c2cccc(S(=O)(=O)N3CCC4CCC(C(=O)NC(c5ccccc5)c5ccccc5)N4C(=O)C(NC(=O)C(C)NC)C3)c2)CCC2CCC(C(=O)NC(c3ccccc3)c3ccccc3)N2C1=O: 3.24
Cn1ncnc1[C@H]1c2n[nH]c(=O)c3cc(F)cc(c23)N[C@@H]1c1ccc(F)cc1 + CNC(C)C(=O)NC1CN(S(=O)(=O)c2cccc(S(=O)(=O)N3CCC4CCC(C(=O)NC(c5ccccc5)c5ccccc5)N4C(=O)C(NC(=O)C(C)NC)C3)c2)CCC2CCC(C(=O)NC(c3ccccc3)c3ccccc3)N2C1=O: 3.9
CNC(C)C(=O)NC1CN(S(=O)(=O)c2cccc(S(=O)(=O)N3CCC4CCC(C(=O)NC(c5ccccc5)c5ccccc5)N4C(=O)C(NC(=O)C(C)NC)C3)c2)CCC2CCC(C(=O)NC(c3ccccc3)c3ccccc3)N2C1=O (stereo not drawn) + Cc1c(S(C)(=O)=O)c(-c2cc(F)cc(N3CCN(c4ccc(NS(=O)(=O)c5ccc(NC(CCN6CCC(C(=O)OCCCP(=O)(O)O)CC6)CSc6ccccc6)c(S(=O)(=O)C(F)(F)F)c5)cc4)CC3)c2)c(-c2ccc(Cl)cc2)n1C(C)C: 14.2

Here are 2 molecules. What values of viability, T/C were reported for them?
1. NC1CCC(NC2CC2c2ccccc2)CC1 (stereo not drawn) + CNC(C)C(=O)NC1CN(S(=O)(=O)c2cccc(S(=O)(=O)N3CCC4CCC(C(=O)NC(c5ccccc5)c5ccccc5)N4C(=O)C(NC(=O)C(C)NC)C3)c2)CCC2CCC(C(=O)NC(c3ccccc3)c3ccccc3)N2C1=O
2. O=C(c1ccc(F)c(F)c1Nc1ccc(I)cc1F)N1CC(O)([C@@H]2CCCCN2)C1 + CNC(C)C(=O)NC1CN(S(=O)(=O)c2cccc(S(=O)(=O)N3CCC4CCC(C(=O)NC(c5ccccc5)c5ccccc5)N4C(=O)C(NC(=O)C(C)NC)C3)c2)CCC2CCC(C(=O)NC(c3ccccc3)c3ccccc3)N2C1=O

output:
[3.8, 5.49]

Here are 2 molecules. What values of viability, T/C were reported for them?
1. COc1c(OCCCN2CCOCC2)ccc2c3n(c(=NC(=O)c4cnc(N)nc4)nc12)CCN3 + Cc1c(S(C)(=O)=O)c(-c2cc(F)cc(N3CCN(c4ccc(NS(=O)(=O)c5ccc(NC(CCN6CCC(C(=O)OCCCP(=O)(O)O)CC6)CSc6ccccc6)c(S(=O)(=O)C(F)(F)F)c5)cc4)CC3)c2)c(-c2ccc(Cl)cc2)n1C(C)C
2. CCN1CCN(Cc2ccc(Nc3ncc(F)c(-c4cc(F)c5nc(C)n(C(C)C)c5c4)n3)nc2)CC1 + CNC(C)C(=O)NC1CN(S(=O)(=O)c2cccc(S(=O)(=O)N3CCC4CCC(C(=O)NC(c5ccccc5)c5ccccc5)N4C(=O)C(NC(=O)C(C)NC)C3)c2)CCC2CCC(C(=O)NC(c3ccccc3)c3ccccc3)N2C1=O

output:
1: 88.3; 2: 4.39
